# TARGET OR SYSTEM: Phosphoethanolamine N-methyltransferase 1 (Caenorhabditis elegans)
Kindly supply the reported pIC50 values for the records listed here.
Answers are plain numbers, as −log10 of the molar value.

Example results:
[
  {
    "COMPOUND": "CCN(CC)Cc1cc(Nc2ccnc3cc(Cl)ccc23)ccc1O [Amodiaquin]",
    "pIC50": 2.47
  },
  {
    "COMPOUND": "Nc1ncnc2c1ncn2[C@@H]1O[C@H](C[C@@H](N)CC[C@H](N)C(=O)O)[C@@H](O)[C@H]1O [Sinefungin]",
    "pIC50": 4.47
  }
]

Summary for this compound, CCCCCCCCCCCCCCCCOP(=O)([O-])OCC[N+](C)(C)C [n-hexadecylphosphocholine] : pIC50 is 3.90

* * *

Recorded IC50 values (UniProt:Q22993) are given below.
Sequence (Q22993 whole entry): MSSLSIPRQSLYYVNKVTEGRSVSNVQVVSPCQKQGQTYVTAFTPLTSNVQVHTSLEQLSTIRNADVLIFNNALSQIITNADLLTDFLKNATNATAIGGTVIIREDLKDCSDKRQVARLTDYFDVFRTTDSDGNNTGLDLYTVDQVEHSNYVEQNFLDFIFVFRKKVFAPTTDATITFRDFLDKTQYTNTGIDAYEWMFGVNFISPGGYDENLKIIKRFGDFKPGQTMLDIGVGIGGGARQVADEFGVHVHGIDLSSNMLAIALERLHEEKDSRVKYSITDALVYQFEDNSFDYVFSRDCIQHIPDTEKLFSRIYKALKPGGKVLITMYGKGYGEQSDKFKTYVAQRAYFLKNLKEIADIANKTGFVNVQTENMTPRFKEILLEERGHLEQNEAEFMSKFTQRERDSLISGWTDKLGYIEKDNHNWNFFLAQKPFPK
Answers are plain numbers, in µM.

[
  {
    "SMI": "CCCCCCCCCCCCCCCCOP(=O)([O-])OCC[N+](C)(C)C",
    "UNIT ABBREVIATION": "µM",
    "IC50": 12.5
  }
]

# return IC50 for each item in the list
1. CCN(CC)Cc1cc(Nc2ccnc3cc(Cl)ccc23)ccc1O
2. Nc1c2c(nc3ccccc13)CCCC2
3. Nc1ncnc2c1ncn2[C@@H]1O[C@H](C[C@@H](N)CC[C@H](N)C(=O)O)[C@@H](O)[C@H]1O

1. 3100
2. 3500
3. 91.5

* * *

# TARGET OR SYSTEM: UniProtKB Q22993
# EXPERIMENTAL DETAILS: Calorimetric (ITC) Assay
# REPORTED CONDITIONS: pH 7.5; 20 °C
VALUE TYPE: Kd
Could you kindly put the unit after your number?

Summary for this compound, Nc1ncnc2c1ncn2[C@H]1O[C@@H](CSCC[C@@H](N)C(=O)O)[C@H](O)[C@@H]1O : Kd is 4.2 µM

* * *

Kindly supply the reported pKd values for the records listed here.
# TARGET OR SYSTEM: Phosphoethanolamine N-methyltransferase 1 (Caenorhabditis elegans, UniProt Q86NB3)
# Sequence (Q86NB3 whole entry): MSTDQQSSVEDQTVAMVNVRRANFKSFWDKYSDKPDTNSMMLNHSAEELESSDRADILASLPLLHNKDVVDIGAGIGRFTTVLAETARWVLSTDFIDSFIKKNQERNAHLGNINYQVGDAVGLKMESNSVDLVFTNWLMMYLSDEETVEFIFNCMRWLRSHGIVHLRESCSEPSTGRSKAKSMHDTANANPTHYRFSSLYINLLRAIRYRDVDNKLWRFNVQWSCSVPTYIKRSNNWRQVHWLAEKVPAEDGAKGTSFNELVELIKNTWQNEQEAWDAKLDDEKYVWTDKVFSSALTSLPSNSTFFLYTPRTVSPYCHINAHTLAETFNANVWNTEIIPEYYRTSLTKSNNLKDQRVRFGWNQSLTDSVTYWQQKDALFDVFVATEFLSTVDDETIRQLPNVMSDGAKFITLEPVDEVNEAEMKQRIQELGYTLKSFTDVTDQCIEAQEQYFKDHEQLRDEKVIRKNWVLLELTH
# EXPERIMENTAL DETAILS: Calorimetric (ITC) Assay
# REPORTED CONDITIONS: pH 7.5; 5 °C
Give bare numbers, as −log10 of the molar value.

[
  {
    "COMPOUND": "C[S+](CC[C@H](N)C(=O)[O-])C[C@H]1O[C@@H](n2cnc3c(N)ncnc32)[C@H](O)[C@@H]1O (some centres not stated)",
    "READING": 5.21
  }
]

Next:
The value of pKd recorded for Nc1ncnc2c1ncn2[C@H]1O[C@@H](CSCC[C@@H](N)C(=O)O)[C@H](O)[C@@H]1O when tested on Phosphoethanolamine N-methyltransferase 1 (Caenorhabditis elegans, UniProt Q86NB3) reads 6.15

* * *

Kindly supply the reported pKd values for the records listed here.
# TARGET OR SYSTEM: Phosphoethanolamine N-methyltransferase 1 (Caenorhabditis elegans)
# EXPERIMENTAL DETAILS: Calorimetric (ITC) Assay
# REPORTED CONDITIONS: pH 7.5; 20 °C
One number for each entry, as −log10 of the molar value.

# return pKd for each item in the list
1. Nc1ncnc2c1ncn2[C@H]1O[C@@H](CSCC[C@@H](N)C(=O)O)[C@H](O)[C@@H]1O
2. C[S+](CC[C@H](N)C(=O)[O-])C[C@H]1O[C@@H](n2cnc3c(N)ncnc32)[C@H](O)[C@@H]1O (some centres not stated)

5.80
4.78
